assay: Selectivity index, ratio of IC50 for cytotoxicity against African green monkey Vero cells to IC50 for antitrypanosomal activity against Trypanosoma cruzi IRHOD/CO/2008/SN3 (DTU I) amastigote form infected in Vero cells; assay type: toxicity, cell-based; conditions: read-out: Ratio IC50
Property measured: selectivity ratio

CC(C)c1cc(C=O)c([C@@]2(C)CCCC(C)(C)C2=O)cc1O: > 40

Fill in reported selectivity ratio for this entry: "COC(=O)[C@]1(C)CCC[C@]2(C)C3=C(C=C[C@@H]12)C(=O)C(C(C)C)=CC3=O"
> 40

====

tested on: Trypanosoma cruzi; assay: Antitrypanosomal activity against Trypanosoma cruzi TINF/CH/1956/Tulahuen (DTU VI) epimastigote form assessed as parasite growth inhibition incubated for 48 hrs by resazurin dye based assay; type: functional, organism-based
Property measured: IC50 (µM)
Expressed in µM, but write only the number.

Reference set, count: 8
CC(C)c1cc2c(cc1O)[C@@]1(C)CCC[C@@](C)(C=O)[C@@H]1CC2: 48.7
CC(C)c1cc2c(cc1O)[C@@]1(C)CCCC(C)(C)[C@@]1(O)OC2=O: 72.8
CC(C)c1cc2c(cc1O)[C@@]1(C)CCC[C@@]3(C)CO[C@@H](C2=O)[C@@H]31: 62.8
CC(C)C1=CC(=O)C2=C(C=C[C@H]3C(C)(C)CCC[C@]23C)C1=O: 19.2
COC(=O)[C@]1(C)CCC[C@]2(C)C3=C(C=C[C@@H]12)C(=O)C(C(C)C)=CC3=O: 2.1
COC(=O)[C@]1(C)CCC[C@]2(C)c3ccc(C(C)C)c(O)c3CC[C@@H]12: 71.2
CC(C)c1cc(C=O)c([C@@]2(C)CCCC(C)(C)C2=O)cc1O: 13.5
CC(C)C1=CC2=C[C@@H]3OC(=O)[C@]4(C)CCC=C(C2=C(O)C1=O)[C@]34C: 95.3

Fetch value of IC50 on Trypanosoma cruzi for "CC(C)c1cc2c(cc1O)[C@@]1(C)CCC[C@@]3(C)CO[C@@H]([C@@H]2O)[C@@H]31" .
34.6
